# TESTED_TARGET: T1, Rat Semaphorin3A-Sema Domain, TPP-19120 (rat, UniProt Q63548 21-569)
# T1 construct: produced inhouse
# T1 sequence: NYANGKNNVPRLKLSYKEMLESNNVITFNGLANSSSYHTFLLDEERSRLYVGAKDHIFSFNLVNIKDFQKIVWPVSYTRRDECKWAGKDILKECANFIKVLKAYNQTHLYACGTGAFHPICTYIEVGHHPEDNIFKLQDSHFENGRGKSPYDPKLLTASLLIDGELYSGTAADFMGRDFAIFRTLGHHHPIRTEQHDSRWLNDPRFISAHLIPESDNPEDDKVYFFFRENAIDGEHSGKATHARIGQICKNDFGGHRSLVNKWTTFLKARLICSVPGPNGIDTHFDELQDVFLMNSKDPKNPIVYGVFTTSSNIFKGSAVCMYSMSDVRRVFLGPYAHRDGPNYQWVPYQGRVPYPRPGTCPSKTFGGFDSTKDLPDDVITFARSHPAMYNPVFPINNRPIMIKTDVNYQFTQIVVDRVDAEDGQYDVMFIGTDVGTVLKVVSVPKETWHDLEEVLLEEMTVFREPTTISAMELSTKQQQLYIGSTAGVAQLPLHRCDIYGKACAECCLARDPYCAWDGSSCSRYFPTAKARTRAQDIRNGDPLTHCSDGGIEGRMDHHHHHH
# ASSAY_DETAILS: SPR, captured antibody, Sema3A domain analyte
Catalogue of binders with associated Binding Activity [%]
The reply should be a number in %, with the unit left off.

TPP-15374 (antibody, human IgG1, lambda, V domains shown, human IgG1; also called IgG1, hit from panning; parental mAb) VH: EVQLLESGGGLVQPGGSLRLSCAASGFTFSSYEMNWVRQAPGKGLEWVSGISWNSGSIGYADSVKGRFTISRDNSKNTLYLQMNSLRAEDTAVYYCARSGYSSSWFDPDFDYWGQGTLVTVSS VL: QSVLTQPPSASGTPGQRVTISCTGSSSNIGAGYDVHWYQQLPGTAPKLLIYGNSNRPSGVPDRFSGSKSGTSASLAISGLRSEDEADYYCSSYAGSNPYVVFGGGTKLTVLG
94

For the next question, use this binder.
So what does the record say about Binding Activity [%] for TPP-30789 (antibody, human IgG1, kappa, V domains shown, prior art, WO 2020/225400; also called BI clone II; Böhringer (BI) Clone II) VH: EVQLVESGGGLVQPGGSLRLSCAASGFPFSSYYMSWVRQAPGKGLEWVSTIIKSGGYAYYPDSVKDRFTISRDNSKNTLYLQMSSLRAEDTAVYYCVRGGQGAMDYWGQGTTVTVSS VL: EIVLTQSPATLSLSPGERATLSCRASQSIGDYLHWYQQKPGQAPRLLIKYASQSISGIPARFSGSGSGTDFTLTITSLEPEDFAVYYCQQGYSFPYTFGGGTKLEIKR ? 104

# credit: patent US20240254222A1
